In what follows, each item is paired with its MIC for Staphylococcus aureus 209P JC-1.
recordedMetric: MIC (µg/mL)

compound | val
Nc1nc(/C(=N/O)C(=O)NC2C(=O)N3C(C(=O)O)=C(SC4CCOCC4)CS[C@H]23)cs1 (stereo partly shown) | 0.2
CO/N=C(\C(=O)NC1C(=O)N2C(C(=O)O)=C(SCC3CCOC(C)(C)O3)CS[C@H]12)c1csc(N)n1 (stereo partly shown) | 1.56
CO/N=C(\C(=O)NC1C(=O)N2C(C(=O)O)=C(SC3CCOC3)CS[C@H]12)c1csc(N)n1 (stereo partly shown) | 0.2
CO/N=C(\C(=O)NC1C(=O)N2C(C(=O)O)=C(SC3COCOC3)CSC12)c1csc(N)n1 (stereo not shown) | 0.39
CO/N=C(\C(=O)NC1C(=O)N2C(C(=O)O)=C(SCC3CCCCO3)CS[C@H]12)c1csc(N)n1 (stereo partly shown) | 3.13
CO/N=C(\C(=O)NC1C(=O)N2C(C(=O)O)=C(SCC3COCO3)CS[C@H]12)c1csc(N)n1 (stereo partly shown) | 1.56
Nc1nc(/C(=N/O)C(=O)NC2C(=O)N3C(C(=O)O)=C(SC4COCOC4)CS[C@H]23)cs1 (stereo partly shown) | 0.2

Cited source: patent US5332731A
